Assay: in vitro
Details: human, hela cells, % viability
measure: viability at 28.5 h, 10 µM (%)
Report only the number, with the unit % understood.

Worked cases, answers included:
>  <compound>
COCC(=O)N1CCN(Cc2cccc(-c3ccccn3)c2)CC1 [CBK304035]

>  <unit-abbrev>
%

>  <viability at 28.5 h, 10 µM>
91.3

$$$$
>  <compound>
c1ccc(CCNc2nccnc2-c2ccncc2)nc1 [CBK037378]

>  <unit-abbrev>
%

>  <viability at 28.5 h, 10 µM>
89.3

$$$$

Recorded result, Cc1ccc(-c2nc(C3CCN(C(=O)NC(C)C)CC3)n3ccccc23)cc1 [CBK046861] , viability at 28.5 h, 10 µM: 95

Noted for COc1ccc(C(C)C)cc1-c1cncc(NCCc2c[nH]c3ccccc23)n1 [CBK065174] : its viability at 28.5 h, 10 µM reads 96.5

---

Experiment: in vitro
Conditions: human, hela cells, % viability
measure: viability at 28.5 h, 10 µM (%)
Express your answer in %, writing the number without its unit.

>  <molecule>
NS(=O)(=O)c1ccc(NC(=O)CCC2COc3ccccc3O2)cc1 (stereo not drawn)

>  <viability at 28.5 h, 10 µM, %>
87.9

$$$$

Form: molecule = `Cc1nc(-c2ccc(S(=O)(=O)N3CCC(Cc4ccccc4)CC3)cc2)cs1` ; viability at 28.5 h, 10 µM = 108

---

Assay: in vitro
Settings: human, hela cells, % viability
Label fulfilled when viability at 28.5 h, 10 µM is strictly below 90%; otherwise label not fulfilled.

// known answers, use as guide
>  <compound>
Cc1cn([C@@H]2O[C@H](CO)[C@H](O)C2O)c(=O)nc1N (some centres unmarked) [CBK201268]

>  <qualitative-label>
not fulfilled

$$$$
>  <compound>
Cc1cc(-c2cc(=O)n(Cc3ccc(F)cc3)nc2C2CC2)on1 [CBK284364]

>  <qualitative-label>
not fulfilled

$$$$
>  <compound>
COc1ccc(Oc2nccnc2N2CCN(Cc3ccc([N+](=O)[O-])cc3)CC2)cc1OC [CBK083046T]

>  <qualitative-label>
fulfilled

$$$$
>  <compound>
CC(=O)N1CCCC1C(=O)N1CC(C(=O)Nc2nc3c(C)cc(C)cc3s2)C1 (centres unmarked) [CBK286039]

>  <qualitative-label>
fulfilled

$$$$
>  <compound>
Cc1oc(-c2cccc(Cl)c2)cc1C(=O)O [CBK045856]

>  <qualitative-label>
fulfilled

$$$$

Does the reported viability at 28.5 h, 10 µM of CCOC(=O)Cc1csc(NS(=O)(=O)c2ccc(Br)cc2C)n1 [CBK200027] stay below 90%?
not fulfilled

Please state whether viability at 28.5 h, 10 µM is below 90% for CN1CCN(C(=O)c2cccc(NS(=O)(=O)c3cc(Cl)sc3Cl)c2)CC1 [CBK038966]
not fulfilled

Record CCCNc1nc(O)cc(C(F)(F)F)n1 [CBK000214] : is its viability at 28.5 h, 10 µM strictly below 90%?
not fulfilled

Would you kindly verify if viability at 28.5 h, 10 µM of O=C(/C=C/c1ccco1)Nc1sc2c(c1C(=O)O)CCC2 [CBK263181] is strictly less than 90%?
not fulfilled

Record Cc1ccc(OCC(=O)NC(Cc2ccccc2)C(=O)O)cc1 (centres unmarked) [CBK217681] : is its viability at 28.5 h, 10 µM strictly below 90%?
not fulfilled

Identify whether the compound Cc1cc(NCCc2ccc(=O)[nH]c2)nc(-c2cc(F)c(F)cc2F)n1 [CBK144636C] records viability at 28.5 h, 10 µM below 90%.
not fulfilled

---

Experiment: in vitro
Details: human, hela cells, % viability
Readings of viability at 28.5 h, 10 µM for the listed compounds
Write the value in % as a bare number.

Known viability at 28.5 h, 10 µM results, listed for orientation:
>  <compound>
Nc1c(-c2cccc(C(F)(F)F)c2)cnc2ncccc12 [CBK083710]

>  <unit-abbrev>
%

>  <viability at 28.5 h, 10 µM>
105

$$$$
>  <compound>
CSc1ccc(-c2nc(NC(=O)C(C)C)cc3ccccc23)cc1 [CBK085735]

>  <unit-abbrev>
%

>  <viability at 28.5 h, 10 µM>
95.5

$$$$
>  <compound>
Cc1ccc(C(F)(F)F)cc1NS(=O)(=O)c1cc(OC2CCNCC2)c2occc2c1 [CBK082763C]

>  <unit-abbrev>
%

>  <viability at 28.5 h, 10 µM>
90.1

$$$$
>  <compound>
CCCN(CCC#N)S(=O)(=O)c1ccc(C(C)C)cc1 [CBK043453]

>  <unit-abbrev>
%

>  <viability at 28.5 h, 10 µM>
94.4

$$$$
>  <compound>
COCCn1c(=O)c2c(nc3oc(C(C)(C)C)cn32)n(C)c1=O [CBK307566]

>  <unit-abbrev>
%

>  <viability at 28.5 h, 10 µM>
96.7

$$$$

Query Cc1c(C(=O)Nc2ccncc2)nnn1-c1cccc(C(F)(F)F)c1 [CBK107390] yields viability at 28.5 h, 10 µM of 102

Measured viability at 28.5 h, 10 µM, O=C(NCc1ccccn1)c1ncoc1-c1ccc(F)cc1 [CBK282352] : 79.6

Record summary for Cc1cc(C)cc(NC(=O)C2C3C=CC(O3)C2C(=O)O)c1 (stereo not drawn) [CBK262642] : reported viability at 28.5 h, 10 µM = 95.3

The compound identified as Cc1ccc(CN(Cc2ncc[nH]2)C2CC(C)(C)NC(C)(C)C2)o1 [CBK283191] registered its viability at 28.5 h, 10 µM at 96

---

# Lookup of reported viability at 28.5 h, 10 µM keyed by entry
Test: in vitro
Settings: human, hela cells, % viability
Unit % implied. Number only.

>  <compound>
c1ccc(OCCCCN2CCCC23CCc2[nH]c4ccccc4c2C3)cc1 (stereo not drawn) [CBK092200T]

>  <viability at 28.5 h, 10 µM / %>
89.8

$$$$
>  <compound>
CCOc1ccc(-c2ccnc(N3CCN(CC)CC3)n2)cc1C(=O)O

>  <viability at 28.5 h, 10 µM / %>
80.6

$$$$
>  <compound>
O=C(Cn1c(-c2cccs2)cc2cccnc21)N1CCCC1

>  <viability at 28.5 h, 10 µM / %>
83

$$$$
>  <compound>
Cc1c(C(=O)N2CCNCC2C)nnn1-c1ccc2ncccc2c1 (stereo not drawn)

>  <viability at 28.5 h, 10 µM / %>
94.6

$$$$
>  <compound>
CC(C)(C)CC(=O)N1C[C@@H]2C[C@H](C1)c1ccc(NC(=O)Nc3ccccc3)c(=O)n1C2

>  <viability at 28.5 h, 10 µM / %>
85.8

$$$$

Sure, the documented viability at 28.5 h, 10 µM for `C[C@H](Cn1c(=O)oc2ccccc21)NC(=O)c1cccs1` is 85

// sample `Cc1cc(-c2cn3ccnc3c(N3CCOCC3)n2)cc(C)c1O` , its viability at 28.5 h, 10 µM was 97.4

`C#CCn1nnc2ccccc21` yielded viability at 28.5 h, 10 µM of 104

Entry CCC(CN1CCCC1)NC(=O)Cc1cc(C)ccc1OC (stereo not drawn) — recorded viability at 28.5 h, 10 µM = 83.2

---

viability at 28.5 h, 10 µM values by entry
Assay: in vitro
Conditions: human, hela cells, % viability

>  <compound>
Cc1ncsc1CCOc1ncccc1C(F)(F)F [CBK115781]

>  <recorded-measurement>
92.2%

$$$$
>  <compound>
O=C(NCCC1SC(NC2CCCCCC2)=NC1=O)Nc1ccc(C(F)(F)F)cc1Cl (stereo not drawn) [CBK067682]

>  <recorded-measurement>
89.9%

$$$$

Switching to the query record.
Quick note, viability at 28.5 h, 10 µM for CS(=O)(=O)c1ccc(Cn2ccnc(N3CCN(C(=O)c4ccc5occc5c4)CC3)c2=O)cc1 [CBK153777] landed at 90.8%

---

Assay: in vitro
Details: human, hela cells, % viability
measure: viability at 28.5 h, 10 µM (%)
Your answer should be a plain number; it is taken to be in %.

Please review the following examples before continuing.
>  <compound>
CCNC(=O)C1(Cc2ccccc2-c2ccccc2)CCN(C(=O)c2cccc(F)c2)CC1 [CBK285689]

>  <viability at 28.5 h, 10 µM (%)>
88.7

$$$$
>  <compound>
COCCNc1nc2c([nH]1)c(=O)n(C)c(=O)n2C [CBK288104]

>  <viability at 28.5 h, 10 µM (%)>
90.3

$$$$
>  <compound>
O=C(c1cccnc1)N1C2CCC1CC(c1ccc(F)cc1)C2 (stereo not shown) [CBK283762]

>  <viability at 28.5 h, 10 µM (%)>
98.3

$$$$
>  <compound>
CCN1CCN(C(=O)c2cnccn2)CC1 [CBK200373]

>  <viability at 28.5 h, 10 µM (%)>
81.6

$$$$
>  <compound>
CC(=O)Nc1ccc(C(=O)Nc2ccc(S(N)(=O)=O)cc2)cc1 [CBK261600]

>  <viability at 28.5 h, 10 µM (%)>
95.3

$$$$
>  <compound>
Oc1ccc(-c2cccc(N3CCN(c4ccccn4)CC3)n2)cc1 [CBK037028]

>  <viability at 28.5 h, 10 µM (%)>
103

$$$$

So for O=C1NCC2(CCCN(Cc3ccccc3F)C2)Oc2ccccc21 (stereo not shown) [CBK284901] , the logged viability at 28.5 h, 10 µM turned out to be 95

O=C(O)C1C2C=CC(C2)C1C(=O)NCc1ccco1 (stereo not shown) [CBK265453] yielded viability at 28.5 h, 10 µM of 92.7

Lab note: measured viability at 28.5 h, 10 µM of CCn1c(C(C)NC2CCN(CC(=O)OC)CC2)nc2ccccc21 (stereo not shown) [CBK305396] was 97.9

In plain terms, Cc1nc2c(c(=O)[nH]1)CCN(Cc1[nH]c3ccccc3c1C)C2 [CBK283995] has a documented viability at 28.5 h, 10 µM of 93
